# test description: Ratio of drug level in brain to plasma of diet-induced obese C57BL/6J mouse model at 10 mg/kg administered as daily dose measured at 2 hrs post last dose on day 5
# Format: ADME, organism-based
# experimental setup: read-out: BPR
observable: Kp at 2 h

Inquiry: Can you look up the measured Kp at 2 h of Cc1c(C(=O)NN2CCCCC2)nn(-c2ccc(Cl)cc2Cl)c1-c1ccc(Cl)cc1 [RIMONABANT] for me?
Reply text: 0.98

---

# test description: Protein binding in plasma (unknown origin)
# Type: ADME, cell-free
# experimental setup: unidentified, read-out: PPB
observable: fraction unbound
Give the figure by itself; no unit, no explanation.

Inquiry: Can you look up the measured fraction unbound of `O=c1cc(NC2CCN(S(=O)(=O)C(F)(F)F)CC2)c2cc(C(c3ccc(Cl)cc3)c3ccc(Cl)cc3)ccc2[nH]1` for me?
Reply text: 0.0001

---

# test description: Clearance in C57BL/6J mouse at 5 mg/kg, iv or 20 mg/kg, po administered via gavage by LC-MS/MS analysis
# Assay type: ADME, organism-based
# experimental setup: in vivo
observable: clearance (mL/min/kg)
Number in mL/min/kg, nothing else.

Inquiry: Can you look up the measured clearance of `O=c1cc(NC2CCN(S(=O)(=O)C(F)(F)F)CC2)c2cc(C(c3ccc(Cl)cc3)c3ccc(Cl)cc3)ccc2[nH]1` for me?
Reply text: 2.21

---

# experimental system: Cannabinoid receptor 2 (Homo sapiens, UniProt P34972)
# Sequence (P34972 whole entry): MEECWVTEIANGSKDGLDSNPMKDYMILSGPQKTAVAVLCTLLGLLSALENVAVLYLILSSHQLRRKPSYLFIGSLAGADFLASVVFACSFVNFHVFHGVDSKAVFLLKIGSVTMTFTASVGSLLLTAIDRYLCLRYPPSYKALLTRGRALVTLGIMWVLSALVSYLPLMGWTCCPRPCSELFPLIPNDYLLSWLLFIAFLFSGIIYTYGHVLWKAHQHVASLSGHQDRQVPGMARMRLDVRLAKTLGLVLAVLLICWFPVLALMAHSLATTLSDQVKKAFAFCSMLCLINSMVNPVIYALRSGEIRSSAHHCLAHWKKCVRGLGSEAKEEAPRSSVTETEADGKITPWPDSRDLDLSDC
# test description: Inverse agonist activity at human CB2 receptor expressed in HEK293 cells assessed as […] cAMP accumulation after 30 mins by HTRF assay
observable: pEC50
Please keep in mind that pEC50 is minus log10 of the molar concentration; only the number is needed.

Study these solved cases before continuing.
O=C(O)CCCCCOc1cc(NC2CCN(S(=O)(=O)C(F)(F)F)CC2)c2cc(C(c3ccc(Cl)cc3)c3ccc(Cl)cc3)ccc2n1 :: 7.21
O=C(O)c1cccc(S(=O)(=O)N2CCC(Nc3cc(=O)[nH]c4ccc(C(c5ccc(Cl)cc5)c5ccc(Cl)cc5)cc34)CC2)c1 :: 5.06
COCCOCCOCCOCCOCCOCCOCCOc1cc(NC2CCN(S(=O)(=O)C(F)(F)F)CC2)c2cc(C(c3ccc(Cl)cc3)c3ccc(Cl)cc3)ccc2n1 :: 5.23

Proceed to the following item.
Inquiry: Can you look up the measured pEC50 of `COCCCc1cc(C(c2ccc(Cl)cc2)c2ccc(Cl)cc2)cc2c(NC3CCN(S(=O)(=O)C(F)(F)F)CC3)cc(=O)[nH]c12` for me?
Reply text: 7.21

---

# test description: AUClast in C57BL/6J mouse at 20 mg/kg, po administered via gavage by LC-MS/MS analysis
# Assay type: ADME, organism-based
# experimental setup: in vivo
observable: AUC(0-t) (µM·h)
Number in µM·h, nothing else.

Inquiry: Can you look up the measured AUC(0-t) of `O=c1cc(NC2CCN(S(=O)(=O)C(F)(F)F)CC2)c2cc(C(c3ccc(Cl)cc3)c3ccc(Cl)cc3)ccc2[nH]1` for me?
Reply text: 28.4

---

# test description: Drug uptake in plasma of diet-induced obese C57BL/6J mouse model at 3 mg/kg, po administered as daily dose measured at 2 hrs post last dose on day 1
# Assay type: ADME, organism-based
observable: concentration at 2 h
Give me the value, and tack the unit on after it.

Inquiry: Can you look up the measured concentration at 2 h of `O=c1cc(NC2CCN(S(=O)(=O)C(F)(F)F)CC2)c2cc(C(c3ccc(Cl)cc3)c3ccc(Cl)cc3)ccc2[nH]1` for me?
Reply text: 1240 nM
